- Tested on: Klebsiella pneumoniae
- measurement.protocol: Antibacterial activity against Klebsiella pneumoniae MTCC 432 after 16 hr by cup-plate method
- Format: functional
- details: MTCC 432, 16 h
Let's look at some compounds and their measured MIC.
Write the value in µg/mL as a bare number.

Consider the following illustrative entries.
MIC measured on Brc1ccc2c(c1)Sc1cccnc1N2CCCCCCN1c2ccc(Br)cc2Sc2cccnc21 = 25

MIC measured on CC(=O)Nc1ccccc1Sc1ncccc1[N+](=O)[O-] = 50

Read the next record carefully.
MIC measured on c1ccc2c(c1)Sc1cccnc1N2CCCCCCN1c2ccccc2Sc2cccnc21 = 25

----------
- System: Klebsiella pneumoniae
- measurement.protocol: Antibacterial activity against Klebsiella pneumoniae MTCC 432 after 16 hr by cup-plate method
- Type: functional
- details: MTCC 432, 16 h
quantity.measured: MIC (µg/mL)
Write the value in µg/mL as a bare number.

MIC measured on c1ccc2c(c1)Sc1cccnc1N2CCCCN1c2ccccc2Sc2cccnc21 = 25

MIC measured on Brc1ccc2c(c1)Sc1cccnc1N2C/C=C/CN1c2ccc(Br)cc2Sc2cccnc21 = 50

MIC measured on Clc1ccc2c(c1)Sc1cccnc1N2CCCCCCN1c2ccc(Cl)cc2Sc2cccnc21 = 50

Next:
MIC measured on Fc1ccc2c(c1)Sc1cccnc1N2CCCCCCN1c2ccc(F)cc2Sc2cccnc21 = 50

MIC measured on C(=C\CN1c2ccccc2Sc2cccnc21)/CN1c2ccccc2Sc2cccnc21 = 50

meta.source: ChEMBL document CHEMBL3046749
